- Test system: Maize weevil [Sitophilus zeamais (Motschulsky)]
- PROTOCOL_SUMMARY: Maize weevil on dipped corn seeds (MW), 48 hours
- Assay type: in vivo
- CONDITION_LABEL: percent in solution, adult weevils
VALUE_TYPE: LC50 MW

Here's what some known entries look like.
{"SMI": "CC(C)C(=Nc1ccc(F)c(Cl)c1)OCc1cccc(Oc2ccc(C#N)cc2)c1", "LC50 MW": "> 0.01%"}
{"SMI": "CC(C)(C)C(=Nc1cccc(C(F)(F)F)c1)OCc1cccc(Oc2ccccc2)c1", "LC50 MW": "> 0.01%"}
{"SMI": "CC(C)C(=Nc1ccc(F)c(I)c1)OCc1ccc(F)c(Oc2ccc(F)cc2)c1", "LC50 MW": "0.005%"}
{"SMI": "CCOc1ccc(N=C(OCc2ccc(F)c(Oc3ccccc3)c2)C(C)C)cc1F", "LC50 MW": "> 0.01%"}
{"SMI": "CCc1ccc(N=C(OCc2cccc(Oc3ccccc3)c2)C(C)(C)C)cc1", "LC50 MW": "> 0.01%"}
{"SMI": "CC(C)(C)C(=Nc1ccc(F)c(F)c1)OCc1coc(Cc2ccccc2)c1", "LC50 MW": "> 0.01%"}

Requested read-out: LC50 MW. Entry: CC(C)C(=Nc1ccc2c(c1)OC(F)(F)O2)OCc1ccc(F)c(Oc2ccccc2)c1
0.005%

Requested read-out: LC50 MW. Entry: CC(C)C(=Nc1ccc2c(c1)OCO2)OCc1cccc(Oc2ccc(C(C)(C)C)cc2)c1
> 0.01%
